Numbers sourced from patent US10710978B2.

# experimental.system: MAP2K4 (Homo sapiens (Human), UniProt P45985)
# Sequence (P45985 whole entry): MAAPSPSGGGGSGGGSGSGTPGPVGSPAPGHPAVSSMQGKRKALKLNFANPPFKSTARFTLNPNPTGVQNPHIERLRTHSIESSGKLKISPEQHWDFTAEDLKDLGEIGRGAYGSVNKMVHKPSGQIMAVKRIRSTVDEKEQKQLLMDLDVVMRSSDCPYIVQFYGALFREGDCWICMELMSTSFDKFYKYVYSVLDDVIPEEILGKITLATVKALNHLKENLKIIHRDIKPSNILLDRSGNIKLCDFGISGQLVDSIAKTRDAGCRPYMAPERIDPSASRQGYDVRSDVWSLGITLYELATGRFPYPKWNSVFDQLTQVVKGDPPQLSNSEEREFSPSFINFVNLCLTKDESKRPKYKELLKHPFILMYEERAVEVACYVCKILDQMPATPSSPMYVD
# assay.procedure: KiNativ assay
# Type: binding
# assay.conditions: H929 live cell, read-out: inhibition (10 μM)
# Method: Biochemical IC50s of the compounds of the present disclosure against various kinases were measured in a KiNativ assay. Compounds were screened in duplicate at 10 μM in H929 live cell. IC50 was measured via Mass spectroscopy (MS).
quantity.name: inhibition at 10 µM (%)
Expressed in %, but write only the number.

Here are 3 compounds together with their reported answers.
Data request, read-out inhibition at 10 µM, for Nc1ncc(-c2cccc([N+](=O)[O-])c2F)cc1-c1ccc2c(c1)CCNC2=O
72.9

Reported inhibition at 10 µM, compound Nc1ncc(-c2ccc(NS(=O)(=O)C3CC3)cc2F)cc1-c1ccc2c(c1)CCNC2=O : ____
44.2

Sample COc1cc(NS(=O)(=O)C2CC2)ccc1-c1cnc(N)c(-c2ccc3c(c2)CCNC3=O)c1 — what was its inhibition at 10 µM?
37.5

Next:
Please look up its inhibition at 10 µM: Nc1ncc(-c2cccc3ncsc23)cc1-c1ccc2c(c1)CCNC2=O
48.2

Report inhibition at 10 µM for Nc1ncc(-c2ccc(NS(=O)(=O)C3CC3)cc2OC2CCCCC2)cc1-c1ccc2c(c1)CCNC2=O please.
-15.3

Need inhibition at 10 µM of CN(C1CC1)S(=O)(=O)c1ccc(-c2cnc(N)c(-c3ccc4c(c3)CCNC4=O)c2)c(F)c1 , thanks.
32.5

---

# experimental.system: UniProtKB Q7RTN6
# Sequence (Q7RTN6 whole entry): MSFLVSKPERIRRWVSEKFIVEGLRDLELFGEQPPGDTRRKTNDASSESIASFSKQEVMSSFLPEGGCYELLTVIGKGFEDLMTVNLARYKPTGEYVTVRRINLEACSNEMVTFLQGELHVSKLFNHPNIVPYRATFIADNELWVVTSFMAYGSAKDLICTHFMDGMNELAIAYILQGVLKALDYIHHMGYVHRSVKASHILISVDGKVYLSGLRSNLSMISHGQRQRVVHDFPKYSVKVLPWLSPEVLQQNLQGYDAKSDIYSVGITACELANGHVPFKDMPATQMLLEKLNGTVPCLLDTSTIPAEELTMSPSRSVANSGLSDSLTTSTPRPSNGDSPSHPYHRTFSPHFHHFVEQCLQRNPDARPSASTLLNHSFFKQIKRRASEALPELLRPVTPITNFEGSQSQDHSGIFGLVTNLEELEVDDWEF
# assay.procedure: KiNativ assay
# Assay type: binding
# assay.conditions: H929 live cell, read-out: inhibition (10 μM)
This section presents compounds with their documented inhibition at 10 µM values.
Quick note: give the figure in %, leave out the unit.

What measured inhibition at 10 µM goes with CN(C1CC1)S(=O)(=O)c1ccc(-c2cnc(N)c(-c3ccc4c(c3)CCNC4=O)c2)c(F)c1 ?
6.3

Dear colleague, I am looking for the recorded inhibition at 10 µM of the following compound: Nc1ncc(-c2ccc(NS(=O)(=O)C3CC3)cc2OC2CCCCC2)cc1-c1ccc2c(c1)CCNC2=O
-38.6

Dear colleague, I am looking for the recorded inhibition at 10 µM of the following compound: Nc1ncc(-c2ccc(NS(=O)(=O)C3CC3)cc2F)cc1-c1ccc2c(c1)CCNC2=O
-17.1

Name the reported inhibition at 10 µM value associated with the compound Nc1ncc(-c2cccc([N+](=O)[O-])c2F)cc1-c1ccc2c(c1)CCNC2=O
-14.9

Need inhibition at 10 µM of COc1cc(NS(=O)(=O)C2CC2)ccc1-c1cnc(N)c(-c2ccc3c(c2)CCNC3=O)c1 , thanks.
-22.3

Could you share which inhibition at 10 µM value was measured for Nc1ncc(-c2cccc3ncsc23)cc1-c1ccc2c(c1)CCNC2=O ?
9.9

---

# experimental.system: MARK3 (Homo sapiens (Human))
# Sequence (P27448 whole entry): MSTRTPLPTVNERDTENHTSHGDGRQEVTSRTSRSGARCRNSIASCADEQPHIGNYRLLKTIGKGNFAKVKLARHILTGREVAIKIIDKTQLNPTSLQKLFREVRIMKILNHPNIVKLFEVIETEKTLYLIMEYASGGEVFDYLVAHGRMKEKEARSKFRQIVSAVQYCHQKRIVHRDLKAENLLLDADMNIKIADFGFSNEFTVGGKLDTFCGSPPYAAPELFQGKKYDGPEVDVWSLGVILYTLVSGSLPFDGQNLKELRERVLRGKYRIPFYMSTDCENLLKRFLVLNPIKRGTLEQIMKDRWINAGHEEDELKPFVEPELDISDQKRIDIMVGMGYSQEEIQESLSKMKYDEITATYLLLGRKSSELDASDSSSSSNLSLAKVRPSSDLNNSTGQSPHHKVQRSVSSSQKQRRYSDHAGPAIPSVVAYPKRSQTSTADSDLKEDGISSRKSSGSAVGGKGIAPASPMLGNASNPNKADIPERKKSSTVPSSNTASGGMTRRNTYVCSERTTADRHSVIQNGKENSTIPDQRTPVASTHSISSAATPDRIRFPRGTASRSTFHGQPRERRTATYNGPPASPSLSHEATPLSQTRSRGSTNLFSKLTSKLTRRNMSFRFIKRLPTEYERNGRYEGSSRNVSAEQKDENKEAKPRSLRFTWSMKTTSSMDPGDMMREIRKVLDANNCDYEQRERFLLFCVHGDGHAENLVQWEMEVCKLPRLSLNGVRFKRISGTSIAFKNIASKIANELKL
# assay.procedure: KiNativ assay
# Type: binding
# assay.conditions: H929 live cell, read-out: inhibition (10 μM)
Mark TRUE for reported inhibition at 10 µM of 10% or greater; mark FALSE for anything smaller.

# example entries with known answers
Kindly determine if inhibition at 10 µM recorded for COc1cc(NS(=O)(=O)C2CC2)ccc1-c1cnc(N)c(-c2ccc3c(c2)CCNC3=O)c1 is above or exactly 10%.
FALSE

I'd appreciate it if you could say whether Nc1ncc(-c2ccc(NS(=O)(=O)C3CC3)cc2OC2CCCCC2)cc1-c1ccc2c(c1)CCNC2=O has inhibition at 10 µM at least equal to 10%.
FALSE

Continuing:
Check this compound for inhibition at 10 µM at or above 10%: Nc1ncc(-c2cccc3ncsc23)cc1-c1ccc2c(c1)CCNC2=O
TRUE

---

# experimental.system: NuaK2 (Homo sapiens (Human))
# Sequence (Q9H093 whole entry): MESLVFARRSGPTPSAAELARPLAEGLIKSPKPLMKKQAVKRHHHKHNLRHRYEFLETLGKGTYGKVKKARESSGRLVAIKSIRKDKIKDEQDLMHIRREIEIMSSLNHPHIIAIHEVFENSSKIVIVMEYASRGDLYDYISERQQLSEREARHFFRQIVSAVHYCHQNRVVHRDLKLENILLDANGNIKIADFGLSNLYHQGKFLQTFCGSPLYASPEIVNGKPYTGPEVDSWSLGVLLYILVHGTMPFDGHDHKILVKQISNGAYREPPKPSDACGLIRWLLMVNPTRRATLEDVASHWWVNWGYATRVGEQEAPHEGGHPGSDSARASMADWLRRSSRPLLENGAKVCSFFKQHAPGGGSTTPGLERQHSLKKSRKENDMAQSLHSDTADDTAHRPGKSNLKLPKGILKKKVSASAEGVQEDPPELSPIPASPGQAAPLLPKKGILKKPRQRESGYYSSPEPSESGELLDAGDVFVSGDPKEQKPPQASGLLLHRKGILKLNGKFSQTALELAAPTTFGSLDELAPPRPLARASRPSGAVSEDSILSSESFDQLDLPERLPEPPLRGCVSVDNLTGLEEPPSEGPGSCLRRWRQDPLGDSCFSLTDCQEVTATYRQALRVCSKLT
# assay.procedure: KiNativ assay
# Type: binding
# assay.conditions: H929 live cell, read-out: inhibition (10 μM)
Decide by inhibition at 10 µM: equal to or exceeding 50% means criterion met, less means criterion not met.

Answer whether inhibition at 10 µM of CN(C1CC1)S(=O)(=O)c1ccc(-c2cnc(N)c(-c3ccc4c(c3)CCNC4=O)c2)c(F)c1 [Compound I-28] is greater than or equal to 50%.
criterion not met

Assess whether reported inhibition at 10 µM for Nc1ncc(-c2cccc3ncsc23)cc1-c1ccc2c(c1)CCNC2=O [Compound I-13] sits at 50% or higher.
criterion met

Assess whether reported inhibition at 10 µM for Nc1ncc(-c2ccc(NS(=O)(=O)C3CC3)cc2F)cc1-c1ccc2c(c1)CCNC2=O [Compound I-51] sits at 50% or higher.
criterion not met

Answer whether inhibition at 10 µM of Nc1ncc(-c2cccc([N+](=O)[O-])c2F)cc1-c1ccc2c(c1)CCNC2=O [Compound I-9] is greater than or equal to 50%.
criterion met

Now look at this one.
Identify whether the reported inhibition at 10 µM of the following molecule is 50% or greater: COc1cc(NS(=O)(=O)C2CC2)ccc1-c1cnc(N)c(-c2ccc3c(c2)CCNC3=O)c1 [Compound I-50]
criterion not met

---

Each item that follows carries a reported inhibition at 10 µM.
# experimental.system: UniProt:Q13555
# Sequence (Q13555 whole entry): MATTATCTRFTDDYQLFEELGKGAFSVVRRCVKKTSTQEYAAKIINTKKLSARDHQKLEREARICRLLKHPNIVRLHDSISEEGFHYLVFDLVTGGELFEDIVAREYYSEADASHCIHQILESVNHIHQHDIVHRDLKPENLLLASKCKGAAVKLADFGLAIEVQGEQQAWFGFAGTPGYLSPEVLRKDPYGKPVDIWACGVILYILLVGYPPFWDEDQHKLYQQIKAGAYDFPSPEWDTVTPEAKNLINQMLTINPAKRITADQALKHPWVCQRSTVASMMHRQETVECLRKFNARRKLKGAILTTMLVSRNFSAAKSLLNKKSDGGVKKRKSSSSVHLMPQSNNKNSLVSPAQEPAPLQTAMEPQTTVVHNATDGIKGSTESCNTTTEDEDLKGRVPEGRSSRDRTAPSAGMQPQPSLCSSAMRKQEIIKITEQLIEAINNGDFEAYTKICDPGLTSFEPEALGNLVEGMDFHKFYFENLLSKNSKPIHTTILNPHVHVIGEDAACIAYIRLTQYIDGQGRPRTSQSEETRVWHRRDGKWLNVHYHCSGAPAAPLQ
# assay.procedure: KiNativ assay
# Type: binding
# assay.conditions: H929 live cell, read-out: inhibition (10 μM)
# Procedure: Biochemical IC50s of the compounds of the present disclosure against various kinases were measured in a KiNativ assay. Compounds were screened in duplicate at 10 μM in H929 live cell. IC50 was measured via Mass spectroscopy (MS).
Could you give me the number in %? Just the number is fine.

Example cases with answers are listed next.
Which inhibition at 10 µM is reported for this molecule? Nc1ncc(-c2ccc(NS(=O)(=O)C3CC3)cc2F)cc1-c1ccc2c(c1)CCNC2=O
-6.4

Using the record for CN(C1CC1)S(=O)(=O)c1ccc(-c2cnc(N)c(-c3ccc4c(c3)CCNC4=O)c2)c(F)c1 , report its inhibition at 10 µM.
-13

Tell me the measured inhibition at 10 µM of Nc1ncc(-c2cccc([N+](=O)[O-])c2F)cc1-c1ccc2c(c1)CCNC2=O , please.
-23

So what's the measured inhibition at 10 µM for this one? COc1cc(NS(=O)(=O)C2CC2)ccc1-c1cnc(N)c(-c2ccc3c(c2)CCNC3=O)c1
15.6

New cases:
Item under review: Nc1ncc(-c2ccc(NS(=O)(=O)C3CC3)cc2OC2CCCCC2)cc1-c1ccc2c(c1)CCNC2=O . Reported inhibition at 10 µM?
-12

Find the recorded inhibition at 10 µM belonging to Nc1ncc(-c2cccc3ncsc23)cc1-c1ccc2c(c1)CCNC2=O and report it.
-13.6

---

# experimental.system: Erk1 (Homo sapiens (Human))
# Sequence (P27361 whole entry): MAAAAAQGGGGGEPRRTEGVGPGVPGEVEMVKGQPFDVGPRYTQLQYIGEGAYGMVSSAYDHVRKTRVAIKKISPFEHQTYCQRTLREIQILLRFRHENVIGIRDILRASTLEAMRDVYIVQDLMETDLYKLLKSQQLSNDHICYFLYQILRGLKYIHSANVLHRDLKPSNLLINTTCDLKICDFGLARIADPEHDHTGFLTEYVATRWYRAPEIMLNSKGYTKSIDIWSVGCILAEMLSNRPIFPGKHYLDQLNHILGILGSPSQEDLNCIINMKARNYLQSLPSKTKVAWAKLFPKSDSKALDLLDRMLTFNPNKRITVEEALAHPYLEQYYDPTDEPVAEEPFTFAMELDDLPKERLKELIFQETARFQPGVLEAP
# assay.procedure: KiNativ assay
# Assay type: binding
# assay.conditions: H929 live cell, read-out: inhibition (10 μM)
I would appreciate it if you labelled entries Condition met when inhibition at 10 µM is 30% or higher, otherwise Condition not met.

Evaluate Nc1ncc(-c2cccc3ncsc23)cc1-c1ccc2c(c1)CCNC2=O : inhibition at 10 µM at minimum 30%?
Condition met

Could you verify whether the entry Nc1ncc(-c2ccc(NS(=O)(=O)C3CC3)cc2OC2CCCCC2)cc1-c1ccc2c(c1)CCNC2=O shows inhibition at 10 µM of no less than 30%?
Condition not met

More entries:
Say whether COc1cc(NS(=O)(=O)C2CC2)ccc1-c1cnc(N)c(-c2ccc3c(c2)CCNC3=O)c1 shows inhibition at 10 µM of 30% or more.
Condition not met

Is the recorded value of inhibition at 10 µM equal to or greater than 30% for this molecule? CN(C1CC1)S(=O)(=O)c1ccc(-c2cnc(N)c(-c3ccc4c(c3)CCNC4=O)c2)c(F)c1
Condition not met

Is it the case that Nc1ncc(-c2cccc([N+](=O)[O-])c2F)cc1-c1ccc2c(c1)CCNC2=O has inhibition at 10 µM reaching or exceeding 30%?
Condition met

---

# experimental.system: MST3 (Homo sapiens (Human), UniProt Q9Y6E0)
# Sequence (Q9Y6E0 whole entry): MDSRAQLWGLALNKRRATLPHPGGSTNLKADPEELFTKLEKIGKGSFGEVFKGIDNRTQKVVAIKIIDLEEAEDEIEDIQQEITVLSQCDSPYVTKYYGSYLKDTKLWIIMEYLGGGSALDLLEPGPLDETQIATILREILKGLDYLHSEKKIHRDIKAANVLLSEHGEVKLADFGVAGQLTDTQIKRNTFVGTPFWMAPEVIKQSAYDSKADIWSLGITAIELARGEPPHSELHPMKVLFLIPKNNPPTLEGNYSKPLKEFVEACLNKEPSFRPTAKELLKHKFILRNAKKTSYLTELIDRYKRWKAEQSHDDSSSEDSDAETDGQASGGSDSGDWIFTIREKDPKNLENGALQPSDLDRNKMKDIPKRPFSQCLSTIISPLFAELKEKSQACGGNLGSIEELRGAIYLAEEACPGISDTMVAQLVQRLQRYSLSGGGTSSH
# assay.procedure: KiNativ assay
# Type: binding
# assay.conditions: H929 live cell, read-out: inhibition (10 μM)
Kind request: treat 30% as inclusive, so inhibition at 10 µM at 30% or higher is Satisfied, anything lower is Not satisfied.

Example entries begin here.
Is reported inhibition at 10 µM greater than or equal to 30% here: CN(C1CC1)S(=O)(=O)c1ccc(-c2cnc(N)c(-c3ccc4c(c3)CCNC4=O)c2)c(F)c1 [Compound I-28]
Satisfied

Identify whether the reported inhibition at 10 µM of the following compound is 30% or greater: Nc1ncc(-c2cccc3ncsc23)cc1-c1ccc2c(c1)CCNC2=O [Compound I-13]
Not satisfied

# bool: inhibition at 10 µM of COc1cc(NS(=O)(=O)C2CC2)ccc1-c1cnc(N)c(-c2ccc3c(c2)CCNC3=O)c1 [Compound I-50] >= 30%
Not satisfied

Does inhibition at 10 µM meet or surpass 30% for Nc1ncc(-c2ccc(NS(=O)(=O)C3CC3)cc2OC2CCCCC2)cc1-c1ccc2c(c1)CCNC2=O [Compound I-65] ?
Satisfied

Test whether the compound Nc1ncc(-c2ccc(NS(=O)(=O)C3CC3)cc2F)cc1-c1ccc2c(c1)CCNC2=O [Compound I-51] records inhibition at 10 µM of 30% or higher.
Satisfied

Continuing:
Decide: inhibition at 10 µM of Nc1ncc(-c2cccc([N+](=O)[O-])c2F)cc1-c1ccc2c(c1)CCNC2=O [Compound I-9] >= 30%?
Satisfied
